# TGT: CYP1B1 (Homo sapiens, UniProt Q16678)
# TEST DETAILS: Supersomal CYP1B1 fragmentation of coumarin model prodrugs (kinetic fluorimetry)
# Assay type: biochemical
# Design: purchased BD Gentest, Oxford, UK
# CONDITION: 10 μmol dm^−3 prodrug, 10 pmol enzyme, pH 7.4, 37° C.; mean ± standard deviation of three
PROPERTY MEASURED: Specific fragmentation activity CYP1B1

Cc1cc(=O)oc2cc(NC(=O)OCc3cc4cc(Br)ccc4o3)ccc12 : no release
Cc1cc(=O)oc2cc(OCc3cc4cc(F)cc(F)c4o3)ccc12 : no release

====

# TGT: CYP1B1 (Homo sapiens, UniProt Q16678)
# Sequence (Q16678 1-543): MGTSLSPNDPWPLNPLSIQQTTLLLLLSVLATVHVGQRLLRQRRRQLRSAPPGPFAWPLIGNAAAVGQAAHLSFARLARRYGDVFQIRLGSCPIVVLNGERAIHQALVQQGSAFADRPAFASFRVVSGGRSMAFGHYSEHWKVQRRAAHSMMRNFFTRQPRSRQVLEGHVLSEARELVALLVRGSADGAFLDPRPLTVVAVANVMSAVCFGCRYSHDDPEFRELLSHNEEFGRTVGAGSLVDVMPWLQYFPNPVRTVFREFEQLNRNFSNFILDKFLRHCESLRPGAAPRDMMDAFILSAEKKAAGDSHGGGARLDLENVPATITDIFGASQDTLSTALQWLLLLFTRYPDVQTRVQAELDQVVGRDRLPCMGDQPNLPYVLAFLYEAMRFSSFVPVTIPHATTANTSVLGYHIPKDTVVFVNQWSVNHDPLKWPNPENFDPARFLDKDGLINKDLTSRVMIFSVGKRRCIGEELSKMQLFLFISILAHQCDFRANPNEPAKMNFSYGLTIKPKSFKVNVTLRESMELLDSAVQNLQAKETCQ
# TEST DETAILS: CYP1B1 substrate prediction model (Gaussian Kernel weighted k-NN)
# CONDITION: predicted versus actual
PROPERTY MEASURED: % CYP1B1 substrate inhibition accuracy (%)
One number for each entry, in %.

Cc1cc(=O)oc2cc(OCc3cc4cc(F)cc(F)c4o3)ccc12 [VG016-05] : 82

Please look at the items below and tell me % CYP1B1 substrate inhibition accuracy for each one, in order.
1. COc1cc(OC)c2oc(COc3ccc4c(C)cc(=O)oc4c3)cc2c1 [VG035-05]
2. Nc1ccc(S(=O)(=O)Nc2ccnn2-c2ccccc2)cc1 [sulfaphenazole]
3. Oc1ccc(C=Cc2cc(O)cc(O)c2)cc1 [resveratrol]

[A]
96
68
95
